# assay-protocol: Aqueous solubility determination, saturated solution shaken in water, LC
# Format: physicochemical
# setup-conditions: slurried 24 hours, filtered

compound: CC(C)(C)c1ccc(S(=O)(=O)O)cc1.CN1CCN2c3c(cccc31)[C@@H]1CN(CCCC(=O)c3ccc(F)cc3)CC[C@@H]12 [4-t-butylbenzenesulfonate salt]
Aqueous Solubility [µg/mL]: 770
--
compound: CCCc1ccc(S(=O)(=O)O)cc1.CN1CCN2c3c(cccc31)[C@@H]1CN(CCCC(=O)c3ccc(F)cc3)CC[C@@H]12
Aqueous Solubility [µg/mL]: 1620
--
compound: CCCCCCCCc1ccc(S(=O)(=O)O)cc1.CN1CCN2c3c(cccc31)[C@@H]1CN(CCCC(=O)c3ccc(F)cc3)CC[C@@H]12 [4-octylbenzenesulfonate salt]
Aqueous Solubility [µg/mL]: 6
--
compound: CCCCCCCS(=O)(=O)O.CN1CCN2c3c(cccc31)C1CN(CCCC(=O)c3ccc(F)cc3)CCC12 (centres unmarked) [Example 9, lumateperone heptane-1-sulfonic salt]
Aqueous Solubility [µg/mL]: 4300
--
compound: CCCCCS(=O)(=O)O.CN1CCN2c3c(cccc31)C1CN(CCCC(=O)c3ccc(F)cc3)CCC12 (centres unmarked) [Example 8, lumateperone pentane-1-sulfonic salt]
Aqueous Solubility [µg/mL]: 18770
